# system name: T1, Avi-tag Fc with human IL-2R beta and IL-2R gamma attached (Acrobiosystems ACRB-ILG-H82F3-25UG) (human, UniProt P14784 27-239; P31785 23-262)
# T1 construct: Bought; attached to the SAX2 biosensor; also called CD122 CD132; IL-2R βγ; not shown: Fc and Avi-tag
# T1 sequence (looked up) 1: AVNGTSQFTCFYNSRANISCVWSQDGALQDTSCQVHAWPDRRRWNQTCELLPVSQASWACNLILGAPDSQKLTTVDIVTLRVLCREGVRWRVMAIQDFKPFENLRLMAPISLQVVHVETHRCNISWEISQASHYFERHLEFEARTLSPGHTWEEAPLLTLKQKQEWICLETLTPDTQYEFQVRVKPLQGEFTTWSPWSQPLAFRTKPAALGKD
# T1 sequence (looked up) 2: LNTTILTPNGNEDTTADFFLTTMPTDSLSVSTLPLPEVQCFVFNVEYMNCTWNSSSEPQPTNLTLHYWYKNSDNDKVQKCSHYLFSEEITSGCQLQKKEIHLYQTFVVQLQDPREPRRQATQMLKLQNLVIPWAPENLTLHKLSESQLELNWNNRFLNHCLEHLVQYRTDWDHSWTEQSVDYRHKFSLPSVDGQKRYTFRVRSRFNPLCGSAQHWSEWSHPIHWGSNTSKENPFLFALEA
# assay procedure: BLI (Octet R8), receptor on SAX2 sensor
Primed or numbered codes have the meaning given here. [ ]: non-standard residue; d: D form. Ygp = O-(8x polyethylene glycol-amino)-tyrosine (Tyr, amino-capped PEG8); Yn3 = O-(9x polyethylene glycol-azido)-tyrosine (Tyr, azide-capped PEG9); Ygp″ = O-(8x polyethylene glycol-amino)-tyrosine; Yn3″ = O-(9x polyethylene glycol-azido)-tyrosine; Ygp(3) = O-(PEG8-amino)-tyrosine; Yn3(3) = O-(PEG9-azido)-tyrosine; hSer = N[C@@H](CCO)C(=O)O; Nle = CCCC[C@H](N)C(=O)O
Below, each entry is listed with its recorded koff.
Give your result in s⁻¹ as a bare value.

As a guide, the following entries are already answered.
>>> val("CMP-168, MMP2 cleaved (ligand, ends and bridges not checked; also: MMP2 cleaved, ring opened, cut site and remnants not given here, Tested after MMP2 treatment) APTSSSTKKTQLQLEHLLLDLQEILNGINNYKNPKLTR[Nle]L[hSer][Yn3″]KF[Ygp″][Nle]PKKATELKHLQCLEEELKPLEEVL[hSer]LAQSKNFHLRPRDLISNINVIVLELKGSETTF[hSer]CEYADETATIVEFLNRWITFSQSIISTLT")
0.00164
>>> val("CMP-166, MMP2 cleaved (ligand, also: glutaryl-PEG4-peptide bridge Ala1 to Lys23 cut by MMP2, site not given here, ring opened, Tested after MMP2 treatment) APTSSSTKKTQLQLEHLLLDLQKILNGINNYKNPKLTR[Nle]L[hSer][Yn3]KF[Ygp][Nle]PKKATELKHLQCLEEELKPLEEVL[hSer]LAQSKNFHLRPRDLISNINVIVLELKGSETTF[hSer]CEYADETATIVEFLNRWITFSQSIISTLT")
0.000684

--- query ---
koff for CMP-145 (ligand, also: Lys23 side chain attached to another sequence (not given here), Synthetic IL-2 polypeptide, tested intact) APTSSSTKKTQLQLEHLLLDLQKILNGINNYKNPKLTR[Nle]L[hSer][Yn3(3)]KF[Ygp(3)][Nle]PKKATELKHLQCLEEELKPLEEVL[hSer]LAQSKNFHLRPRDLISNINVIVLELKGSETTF[hSer]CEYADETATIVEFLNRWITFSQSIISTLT is 0.00117
